System: PSMA + PC-3 PiP and PSMA − PC-3 flu tumor xenografts
protocolConditions: 21 H post-injection
Please respond with reported Biodistribution: blood for every item in the list.
# answer = value followed by unit

[
  {
    "compound": "O=C(O)CC[C@H](NC(=O)N[C@@H](CCC(=O)NCCc1ccc([211At])cc1)C(=O)O)C(=O)O [[^211At]HS-549]",
    "readout": "Biodistribution: blood",
    "reportedMeasurement": "0.92 ± 0.15 % ID/g"
  },
  {
    "compound": "O=C(O)CC[C@H](NC(=O)N[C@@H](CCCCNC(=O)c1ccc([131I])cc1)C(=O)O)C(=O)O [[^131I]YC-I-27]",
    "readout": "Biodistribution: blood",
    "reportedMeasurement": "0.16 ± 0.06 % ID/g"
  }
]

Q: Field request: Biodistribution: blood | item: N=C(N)NCc1ccc(C(=O)NCCCC[C@H](NC(=O)N[C@@H](CCC(=O)O)C(=O)O)C(=O)O)cc1[131I] [[^131I] labeled 7 (PSMA-620)]
Ans: 0.09 ± 0.07 % ID/g

From: patent US20200231614A1
